biological target: RBP4 (Homo sapiens (Human), UniProt P02753)
pIC50: −log10 of the molar value.
pIC50 reference

# Smiles, pIC50
data = [
    ("O=C(c1n[nH]c2c1CCN(CCC(F)(F)F)C2)N1CCC(c2ccc(F)c(F)c2C(F)(F)F)CC1", 7.97),
    ("CCN1CCc2c(C(=O)N3CCC(c4cccc(F)c4C(F)(F)F)CC3)n[nH]c2C1", 8.16),
    ("O=C(O)CN1CCc2c(C(=O)N3CCC(c4ccc(F)c(F)c4C(F)(F)F)CC3)n[nH]c2C1", 7.72),
    ("CC(=O)N1CCc2c(C(=O)N3CCC(c4cc(F)cc(F)c4C(F)(F)F)CC3)n[nH]c2C1", 8.20),
    ("O=C(c1n[nH]c2c1CCN(CC1CC1)C2)N1CCC(c2ccc(F)c(F)c2C(F)(F)F)CC1", 8.03),
    ("COCCN1CCc2[nH]nc(C(=O)N3CCC(c4cc(F)cc(F)c4C(F)(F)F)CC3)c2C1", 7.80),
    ("O=C(c1n[nH]c2c1CN(C1COC1)CC2)N1CCC(c2cccc(F)c2C(F)(F)F)CC1", 7.94),
    ("O=C(c1n[nH]c2c1CN(CC(F)(F)F)CC2)N1CCC(c2cccc(F)c2C(F)(F)F)CC1", 7.77),
]

###

target: RBP4-TTR interaction (Homo sapiens (Human)); test: TR-FRET (HTRF) assay for retinol-induced RBP4-TTR interaction; settings: in the presence of 1 μM retinol; read-out: HTRF assay for antagonists of RBP4-TTR interaction: IC50
Structures can show the parent of a compound that is named as a salt.
Category scheme (IC50): low (below 20 nM), mid (20 nM to below 40 nM), high (40 nM or more)

# Compound, Assigned Label
records = [
    ("CCC(=O)N1Cc2[nH]nc(C(=O)N3CCC(c4ccc(F)c(F)c4C(F)(F)F)CC3)c2C1", "low"),
    ("O=C(c1n[nH]c2c1CN(CCC(F)(F)F)C2)N1CCC(c2ccc(F)c(F)c2C(F)(F)F)CC1", "high"),
    ("COC(=O)N1CCc2c(C(=O)N3CCC(c4cccc(F)c4Cl)CC3)n[nH]c2C1", "mid"),
    ("O=C(c1n[nH]c2c1CN(CC(F)(F)F)C2)N1CCC(c2ccc(F)c(F)c2C(F)(F)F)CC1", "high"),
    ("N#CN1Cc2[nH]nc(C(=O)N3CCC(c4ccc(F)c(F)c4C(F)(F)F)CC3)c2C1", "low"),
    ("N#Cc1ccc2nnc(C(=O)N3CCC(c4cccc(Cl)c4C(F)(F)F)CC3)n2c1", "low"),
    ("O=C(c1n[nH]c2c1CCN(CC1CC1)C2)N1CCC(c2ccc(F)c(F)c2C(F)(F)F)CC1", "low"),
    ("COCCN1CCc2[nH]nc(C(=O)N3CCC(c4cc(F)cc(F)c4C(F)(F)F)CC3)c2C1", "low"),
    ("N#CN1CCc2[nH]nc(C(=O)N3CCC(c4cccc(F)c4C(F)(F)F)CC3)c2C1", "mid"),
    ("N#Cc1ccc2nnc(C(=O)N3CCC(c4cc(F)ccc4Cl)CC3)n2c1", "high"),
    ("CCN1Cc2[nH]nc(C(=O)N3CCC(c4ccc(F)c(F)c4C(F)(F)F)CC3)c2C1", "mid"),
    ("CC(=O)N1CCc2c(C(=O)N3CCC(c4cc(F)cc(F)c4C(F)(F)F)CC3)n[nH]c2C1", "low"),
    ("CCN1CCc2c(C(=O)N3CCC(c4ccc(F)c(F)c4C(F)(F)F)CC3)n[nH]c2C1", "mid"),
    ("O=C(c1n[nH]c2c1CN(C(=O)N1CCCCC1)C2)N1CCC(c2ccc(F)c(F)c2C(F)(F)F)CC1", "mid"),
    ("O=C(c1n[nH]c2c1CN(C1COC1)C2)N1CCC(c2ccc(F)c(F)c2C(F)(F)F)CC1", "high"),
    ("CNC(=O)N1Cc2[nH]nc(C(=O)N3CCC(c4ccc(F)c(F)c4C(F)(F)F)CC3)c2C1", "mid"),
    ("N#CN1CCc2[nH]nc(C(=O)N3CCC(c4ccc(F)c(F)c4C(F)(F)F)CC3)c2C1", "mid"),
    ("CCN1CCc2[nH]nc(C(=O)N3CCC(c4cccc(F)c4Cl)CC3)c2C1", "high"),
    ("COCCN1CCc2[nH]nc(C(=O)N3CCC(c4ccc(F)c(F)c4C(F)(F)F)CC3)c2C1", "high"),
    ("O=C(c1n[nH]c2c1CN(CCC(F)(F)F)CC2)N1CCC(c2ccc(F)c(F)c2C(F)(F)F)CC1", "mid"),
    ("CCN1CCc2c(C(=O)N3CCC(c4cccc(F)c4C(F)(F)F)CC3)n[nH]c2C1", "mid"),
    ("O=C(c1n[nH]c2c1CN(C(=O)N1CCNCC1)C2)N1CCC(c2ccc(F)c(F)c2C(F)(F)F)CC1", "high"),
    ("O=C(c1n[nH]c2c1CN(CC(F)(F)F)CC2)N1CCC(c2cccc(F)c2C(F)(F)F)CC1", "high"),
    ("CS(=O)(=O)N1CCc2[nH]nc(C(=O)N3CCC(c4cccc(F)c4C(F)(F)F)CC3)c2C1", "mid"),
    ("O=C(c1n[nH]c2c1CNCC2)N1CCC(c2ccc(F)c(F)c2C(F)(F)F)CC1 [Compound 36, Trifluoroacetic Acid Salt]", "high"),
]

###

molecular target: RBP4-TTR interaction (Homo sapiens (Human), UniProt P02753); assay: TR-FRET (HTRF) assay for retinol-induced RBP4-TTR interaction; conditions: in the presence of 1 μM retinol; read-out: HTRF assay for antagonists of RBP4-TTR interaction: IC50
IC50 reference
Quantity Measured: IC50

# Smiles, Target System, Reading
data = [
    ("CNC(=O)N1CCc2[nH]nc(C(=O)N3CCC(c4cccc(F)c4C(F)(F)F)CC3)c2C1", "RBP4-TTR interaction (Homo sapiens (Human), UniProt P02753)", "40.8 nM"),
    ("O=C(c1n[nH]c2c1CCN(CCC(F)(F)F)C2)N1CCC(c2cccc(F)c2C(F)(F)F)CC1", "RBP4-TTR interaction (Homo sapiens (Human), UniProt P02753)", "19.7 nM"),
    ("O=C(c1n[nH]c2c1CN(CCC(F)(F)F)CC2)N1CCC(c2cc(F)cc(F)c2C(F)(F)F)CC1", "RBP4-TTR interaction (Homo sapiens (Human), UniProt P02753)", "19.5 nM"),
    ("O=C(c1n[nH]c2c1CCN(CCC(F)(F)F)C2)N1CCC(c2ccc(F)c(F)c2C(F)(F)F)CC1", "RBP4-TTR interaction (Homo sapiens (Human), UniProt P02753)", "39.4 nM"),
]
